- STUDY TARGET: vasopressin V2 receptor (rat kidney medullary) (Rattus norvegicus)
- Construct: Medullary tissues from rat kidneys are dissected out; from tissue; host or cells: rat kidney medulla membranes
- Sequence (Q00788 whole entry): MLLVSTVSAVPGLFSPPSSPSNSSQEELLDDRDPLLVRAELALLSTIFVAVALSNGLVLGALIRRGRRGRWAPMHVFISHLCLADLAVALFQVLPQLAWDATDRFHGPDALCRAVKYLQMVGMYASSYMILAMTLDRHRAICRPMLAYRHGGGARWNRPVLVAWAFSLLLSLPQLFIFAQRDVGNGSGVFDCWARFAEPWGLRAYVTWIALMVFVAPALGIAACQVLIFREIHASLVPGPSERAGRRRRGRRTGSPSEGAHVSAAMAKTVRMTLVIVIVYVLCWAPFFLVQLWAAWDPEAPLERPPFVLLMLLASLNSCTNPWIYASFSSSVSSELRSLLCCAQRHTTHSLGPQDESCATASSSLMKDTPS
- PROCEDURE SUMMARY: Binding Assay to Rat Kidney Medullary V2 Receptors
- CONDITION NOTES: rat kidney V2; at 10 μM
- Procedure: Binding Assay to Rat Kidney Medullary V2 Receptors Medullary tissues from rat kidneys are dissected out, cut into small pieces and soaked in a […] sodium chloride solution containing 1.0 mM EDTA with many changes of the liquid phase, until the solution is clear of blood. […] The protein content is determined by the Lowry's method (Lowry et al., J. Biol. Chem., 1953). […]
RECORDED ENDPOINT: inhibition at 10 µM (%)

A selection of reference data follows.
| INPUT SMILES | VALUE MEASURED |
| --- | --- |
| O=C(c1ccc(-c2ccccc2)cc1)N1Cc2ccccc2Oc2ccccc21 | 29 |
| O=C(c1ccccc1)c1ccc(C(=O)N2Cc3ccccc3CCc3ccccc32)cc1 | 16 |

I: Cc1ccc(F)cc1C(=O)Nc1ccc(C(=O)N2Cc3ccccc3Oc3ncccc32)cn1
II: O=C(c1ccccc1)c1ccc(C(=O)N2Cc3ccccc3Oc3ccccc32)cc1
III: Cc1ccc(F)cc1C(=O)Nc1ccc(C(=O)N2Cc3ccccc3CCc3ccccc32)cn1
Put the entries in order of inhibition at 10 µM, starting with the largest number. Respond with an ordered listing of the labels, as requested.
III, II, I
(III: 62%, II: 33%, I: 20%)

* * *

- STUDY TARGET: oxytocin receptor (rat uteri) (Rattus norvegicus, UniProt P70536)
- Construct: The uteri are dissected out, cleaned of fat and connective tissues; from tissue; host or cells: uteri of diethylstilbestrol-treated female Sprague-Dawley rats
- Sequence (P70536 whole entry): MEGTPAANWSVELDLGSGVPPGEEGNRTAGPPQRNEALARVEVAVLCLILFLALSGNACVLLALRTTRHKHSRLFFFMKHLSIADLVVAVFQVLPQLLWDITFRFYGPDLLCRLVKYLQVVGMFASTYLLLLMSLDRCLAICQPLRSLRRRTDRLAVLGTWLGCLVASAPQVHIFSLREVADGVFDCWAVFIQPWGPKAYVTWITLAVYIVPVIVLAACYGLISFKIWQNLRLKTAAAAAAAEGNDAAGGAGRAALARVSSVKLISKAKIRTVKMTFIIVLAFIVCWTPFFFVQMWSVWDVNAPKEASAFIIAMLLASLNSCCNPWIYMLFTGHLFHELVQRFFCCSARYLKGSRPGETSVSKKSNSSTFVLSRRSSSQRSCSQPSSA
- PROCEDURE SUMMARY: Oxytocin Receptor Binding
- Set-up: species or system rat (Sprague-Dawley)
- CONDITION NOTES: dose 1 μM
RECORDED ENDPOINT: inhibition at 1 µM (%)

| COMPOUND | inhibition at 1 µM / % |
| --- | --- |
| Cc1ccc(F)cc1C(=O)Nc1ccc(C(=O)N2Cc3ccccc3CCc3ccccc32)cn1 [Example 45] | 54 |

A: O=C(c1ccc(-c2ccccc2)cc1)N1Cc2sccc2Cc2ccccc21 [Example 27]
B: Cc1ccc(F)cc1C(=O)Nc1ccc(C(=O)N2Cc3ccccc3Oc3ccccc32)cn1 [Example 1]
C: O=C(c1ccccc1)c1ccc(C(=O)N2Cc3ccccc3CCc3ccccc32)cc1 [Example 33]
Put the entries in order of inhibition at 1 µM, starting with the largest number. Respond with an ordered listing of the labels, as requested.
A, C, B

* * *

- STUDY TARGET: vasopressin V1 receptor (rat liver plasma membranes) (Rattus norvegicus)
- Construct: Rat liver plasma membranes expressing the vasopressin V1 receptor subtypes; from tissue; host or cells: rat liver plasma membranes
- PROCEDURE SUMMARY: Binding Assay to Rat Hepatic V1 Receptors
- CONDITION NOTES: 2 h; rat hepatic V1; at 10 μM
RECORDED ENDPOINT: inhibition at 10 µM (%)

A selection of reference data follows.
| COMPOUND | UNIT ABBREVIATION | inhibition at 10 µM |
| --- | --- | --- |
| O=C(c1ccccc1)c1ccc(C(=O)N2Cc3ccccc3Oc3ccccc32)cc1 [Example 32] | % | 53 |
| Cc1ccc(F)cc1C(=O)Nc1ccc(C(=O)N2Cc3ccccc3CCc3ccccc32)cn1 [Example 45] | % | 34 |

I: Cc1ccc(F)cc1C(=O)Nc1ccc(C(=O)N2Cc3ccccc3Oc3ncccc32)cn1 [Example 4]
II: O=C(c1ccccc1)c1ccc(C(=O)N2Cc3ccccc3CCc3ccccc32)cc1 [Example 33]
// compare measured inhibition at 10 µM between I and II ; output the lower one Let me know the label of the one you choose.
II
(II: 10%, I: 44%)

* * *

- System: vasopressin V2
- PROCEDURE SUMMARY: Vasopressin Antidiuretic (V2) Response in Conscious Rats with Free Access to Water Drinking Before But Not During the Experiment
- Assay type: in vivo, rat (Sprague-Dawley)
- CONDITION NOTES: oral 10 mg/kg, N=2
This section presents compounds with their documented Urine Volume values.
Field: numeric (ml/4 hrs). Do not append units.

| COMPOUND | Urine Volume / ml/4 hrs |
| --- | --- |
| O=C(Nc1ccc(C(=O)N2Cc3cccnc3Nc3ccccc32)c(Cl)c1)c1ccccc1-c1ccccc1 [Example 134] | 40.5 |

Recorded Urine Volume of O=C(Nc1ccc(C(=O)N2Cc3cccnc3Nc3ccccc32)cc1)c1ccccc1-c1ccccc1 [Example 133] , please.
27.5

Cool, now Cc1ccc(F)cc1C(=O)Nc1ccc(C(=O)N2Cc3ccccc3Nc3ncccc32)cn1 [Example 352]
9.3

Cool, now O=C(Nc1ccc(C(=O)N2Cc3ccccc3Cc3ccccc32)cc1)c1ccccc1-c1ccccc1 [Example 301]
41.5

Cool, now O=C(Nc1ccc(C(=O)N2Cc3cccnc3Oc3ccccc32)cn1)c1ccccc1-c1ccccc1 [Example 66]
17.0

Cool, now O=C(Nc1ccc(C(=O)N2CCc3cn[nH]c3-c3ccccc32)c(Cl)c1)c1ccccc1-c1ccccc1 [Example 397]
29.8

Cool, now O=C(Nc1ccc(C(=O)N2Cc3ccccc3Cc3ccccc32)c(Cl)c1)c1ccccc1-c1ccccc1 [Example 302]
40

Cool, now O=C(Nc1ccc(C(=O)N2Cc3cccnc3Oc3ccccc32)c(Cl)c1)c1ccccc1-c1ccccc1 [Example 67]
21.5

* * *

- STUDY TARGET: vasopressin V1 receptor (rat liver plasma membranes) (Rattus norvegicus, UniProt P30560)
- Construct: Rat liver plasma membranes expressing the vasopressin V1 receptor subtypes
- Sequence (P30560 whole entry): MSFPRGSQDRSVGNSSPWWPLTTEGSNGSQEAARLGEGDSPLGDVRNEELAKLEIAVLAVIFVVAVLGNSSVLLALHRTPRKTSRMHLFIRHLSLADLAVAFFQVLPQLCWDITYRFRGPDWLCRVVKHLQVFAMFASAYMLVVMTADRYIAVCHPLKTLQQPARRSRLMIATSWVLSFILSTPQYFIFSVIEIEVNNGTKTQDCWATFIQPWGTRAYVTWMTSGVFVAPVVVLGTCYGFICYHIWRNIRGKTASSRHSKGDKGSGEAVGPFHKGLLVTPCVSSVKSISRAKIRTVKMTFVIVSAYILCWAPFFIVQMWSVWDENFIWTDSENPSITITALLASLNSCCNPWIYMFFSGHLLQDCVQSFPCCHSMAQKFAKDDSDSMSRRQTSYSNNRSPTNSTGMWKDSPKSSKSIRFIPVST
- PROCEDURE SUMMARY: Binding Assay to Rat Hepatic V1 Receptors
- CONDITION NOTES: rat hepatic V1 receptors
pIC50: −log10 of the molar value.
RECORDED ENDPOINT: pIC50

P: Cc1ccc(F)cc1C(=O)Nc1ccc(C(=O)N2Cc3sccc3Cc3ccccc32)cn1 [Example 2]
Q: Cc1ccc(F)cc1C(=O)Nc1ccc(C(=O)N2Cc3ccccc3Oc3ccccc32)cn1 [Example 1]
// compare measured pIC50 between P and Q ; output the lower one Let me know the label of the one you choose.
Q
(Q: 6.62, P: 7.23)

* * *

- STUDY TARGET: vasopressin V2 receptor (rat kidney medullary) (Rattus norvegicus)
RECORDED ENDPOINT: pIC50
pIC50 is defined as minus the log10 of a concentration measured in mol/L.

Recorded pIC50 of Cc1ccc(F)cc1C(=O)Nc1ccc(C(=O)N2Cc3ccccc3Oc3ccccc32)cn1 , please.
7.27

* * *

- STUDY TARGET: vasopressin V1 receptor (human platelet membranes) (Homo sapiens, UniProt P37288)
- Construct: tissue Hudson Valley Blood Services
- Sequence (P37288 whole entry): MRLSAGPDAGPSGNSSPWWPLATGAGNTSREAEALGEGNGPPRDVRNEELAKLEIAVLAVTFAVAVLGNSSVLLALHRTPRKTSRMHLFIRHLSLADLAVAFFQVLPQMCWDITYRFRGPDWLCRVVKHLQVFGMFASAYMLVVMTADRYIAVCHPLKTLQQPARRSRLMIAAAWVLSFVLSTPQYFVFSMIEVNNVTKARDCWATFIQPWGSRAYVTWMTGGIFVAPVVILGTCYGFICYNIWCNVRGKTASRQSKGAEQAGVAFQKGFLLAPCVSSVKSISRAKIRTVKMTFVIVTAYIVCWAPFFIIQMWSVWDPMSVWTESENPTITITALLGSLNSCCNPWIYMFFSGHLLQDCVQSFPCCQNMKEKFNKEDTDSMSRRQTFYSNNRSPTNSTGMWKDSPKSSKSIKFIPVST
- PROCEDURE SUMMARY: Binding to Vasopressin V1 receptor subtype in Human Platelet Membranes
RECORDED ENDPOINT: IC50 (nM)
Field: numeric (nM). Do not append units.

IC50 of O=C(c1ccc(-c2ccccc2)cc1)N1Cc2sccc2Cc2ccccc21 on vasopressin V1 receptor (human platelet membranes) (Homo sapiens, UniProt P37288)?
14

* * *

- STUDY TARGET: oxytocin receptor (rat uteri) (Rattus norvegicus)
- Construct: The uteri are dissected out, cleaned of fat and connective tissues; from tissue; host or cells: uteri of diethylstilbestrol-treated female Sprague-Dawley rats
- PROCEDURE SUMMARY: Oxytocin Receptor Binding
- Parameters: species or system rat (Sprague-Dawley)
- CONDITION NOTES: dose 10 μM
- Procedure: Oxytocin Receptor Binding Female Sprague-Dawley rats weighing approximately 200-250 g are injected intramuscularly (i.m.) with 0.3 mg/kg of body weight of diethylstilbestrol (DES). The rats are sacrificed 18 hours later under pentobarbital anesthesia. The uteri are dissected out, cleaned of fat and connective tissues and rinsed in 50 ml of normal saline. The tissue pooled from six rats is homogenized in 50 ml of 0.01 mM Tris. […]
RECORDED ENDPOINT: inhibition at 10 µM (%)

a: Cc1ccc(F)cc1C(=O)Nc1ccc(C(=O)N2Cc3ccccc3Oc3ncccc32)cn1
b: O=C(c1ccccc1)c1ccc(C(=O)N2Cc3ccccc3Oc3ccccc32)cc1
Recorded inhibition at 10 µM values differ for a and b ; which one is higher? Let me know the label of the one you choose.
b
(b: 88%, a: 20%)

* * *

- System: vasopressin V2
- PROCEDURE SUMMARY: Vasopressin Antidiuretic (V2) Response in Conscious Rats with Free Access to Water Drinking Before But Not During the Experiment
- Format: in vivo, rat (Sprague-Dawley)
- CONDITION NOTES: oral 10 mg/kg, N=2
This section presents compounds with their documented Urine Volume values.
Field: numeric (ml/4 hrs). Do not append units.

A selection of reference data follows.
| INPUT SMILES | UNIT ABBREVIATION | Urine Volume |
| --- | --- | --- |
| Cc1ccc(F)cc1C(=O)Nc1ccc(C(=O)N2Cc3cscc3Nc3ccccc32)cn1 | ml/4 hrs | 24.8 |
| O=C(Nc1ccc(C(=O)N2Cc3ccccc3Nc3ccccc32)cn1)c1ccccc1-c1ccccc1 | ml/4 hrs | 22.5 |
| Cl.O=C(Nc1ccc(C(=O)N2Cc3cccnc3Nc3ccccc32)cc1)c1ccccc1-c1ccccc1 | ml/4 hrs | 39.5 |
| O=C(Nc1ccc(C(=O)N2Cc3ccccc3Oc3ccccc32)c(Cl)c1)c1ccccc1-c1ccccc1 | ml/4 hrs | 22.0 |
| Cc1ccc(F)cc1C(=O)Nc1ccc(C(=O)N2CCc3cn[nH]c3-c3ccccc32)cn1 | ml/4 hrs | 17.0 |

Recorded Urine Volume of O=C(c1ccc(-c2cccs2)cc1)N1Cc2ccccc2Nc2ccccc21 , please.
6

Cool, now O=C(Nc1ccc(C(=O)N2CCc3cn[nH]c3-c3ccccc32)cn1)c1ccccc1-c1ccccc1
20.5

Cool, now O=C(Nc1ccc(C(=O)N2Cc3ccccc3Nc3ccccc32)c(Cl)c1)c1ccccc1-c1ccccc1
34

Cool, now O=C(Nc1ccc(C(=O)N2Cc3cccnc3Nc3ccccc32)cn1)c1ccccc1-c1ccccc1
12.8

Cool, now O=C(Nc1ccc(C(=O)N2CCc3cn[nH]c3-c3ccccc32)cc1)c1ccccc1-c1ccccc1
21.8
